# target: EGFR wildtype (Homo sapiens, UniProt P00533)
# Sequence (P00533 25-1210): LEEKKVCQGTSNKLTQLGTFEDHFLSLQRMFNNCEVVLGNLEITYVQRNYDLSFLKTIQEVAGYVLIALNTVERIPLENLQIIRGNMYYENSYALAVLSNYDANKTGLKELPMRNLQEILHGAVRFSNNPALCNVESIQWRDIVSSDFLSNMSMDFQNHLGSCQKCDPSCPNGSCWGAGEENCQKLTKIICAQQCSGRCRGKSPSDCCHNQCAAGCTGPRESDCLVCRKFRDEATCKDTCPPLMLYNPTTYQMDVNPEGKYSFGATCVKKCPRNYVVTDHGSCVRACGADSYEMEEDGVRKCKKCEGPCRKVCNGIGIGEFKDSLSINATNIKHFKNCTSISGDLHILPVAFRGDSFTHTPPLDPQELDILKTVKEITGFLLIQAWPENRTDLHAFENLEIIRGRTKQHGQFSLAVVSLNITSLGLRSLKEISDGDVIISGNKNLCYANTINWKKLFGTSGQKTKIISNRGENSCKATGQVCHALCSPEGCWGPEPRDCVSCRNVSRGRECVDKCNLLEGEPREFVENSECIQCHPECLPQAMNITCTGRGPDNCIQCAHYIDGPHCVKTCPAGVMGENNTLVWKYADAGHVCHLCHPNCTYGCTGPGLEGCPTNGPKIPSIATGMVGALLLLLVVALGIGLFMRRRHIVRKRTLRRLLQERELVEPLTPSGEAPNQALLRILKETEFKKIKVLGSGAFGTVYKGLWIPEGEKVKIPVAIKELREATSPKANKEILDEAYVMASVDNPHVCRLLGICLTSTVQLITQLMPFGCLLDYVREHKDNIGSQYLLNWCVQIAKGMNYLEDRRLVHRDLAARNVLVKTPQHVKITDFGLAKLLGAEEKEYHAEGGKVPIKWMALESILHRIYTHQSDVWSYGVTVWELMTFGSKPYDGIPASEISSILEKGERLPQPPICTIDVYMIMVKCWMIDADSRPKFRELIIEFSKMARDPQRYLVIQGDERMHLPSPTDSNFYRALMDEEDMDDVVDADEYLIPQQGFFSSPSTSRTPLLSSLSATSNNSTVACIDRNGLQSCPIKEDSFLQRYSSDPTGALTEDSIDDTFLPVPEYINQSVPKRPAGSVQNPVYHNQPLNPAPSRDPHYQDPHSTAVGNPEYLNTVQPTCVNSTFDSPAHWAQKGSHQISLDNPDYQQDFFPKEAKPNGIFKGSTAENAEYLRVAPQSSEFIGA
# assay-summary: Biochemical EGFR kinase assay (Lance Ultra TR-FRET), wildtype
# condition-summary: IC50 WT (nM) 100 μM ATP, 100 μM ATP
property: IC50 (nM)

Some entries whose results are on file:
>  <compound>
CN(C)C[C@H]1CC[C@@H](Nc2cc(Nc3ccnc(-c4cnn(S(=O)(=O)C5CC5)c4)n3)ncc2-c2cc(C(F)F)ccn2)CC1 [Example 79]

>  <measured>
450

$$$$
>  <compound>
C[C@]1(O)CC[C@@H](Nc2cc(Nc3ccnc(-c4cnn(S(=O)(=O)C5CC5)c4)n3)ncc2-c2ccc(N3CCOCC3)nn2)CC1 [Example 43]

>  <measured>
1560

$$$$

a = CC(C)(O)[C@H]1CC[C@@H](Nc2cc(Nc3ccnc(-c4cnn(S(=O)(=O)C5CC5)c4)n3)ncc2-c2cc(CN3CCC(F)(F)CC3)ccn2)CC1 [Example 114]
b = CC(C)N1CCN(Cc2ccc(-c3cnc(Nc4ccnc(-c5cnn(S(=O)(=O)C6CC6)c5)n4)cc3N[C@H]3CC[C@@](C)(O)CC3)nc2)CC1 [Example 34]
c = CN(C)Cc1cccc(-c2cnc(Nc3ccnc(-c4cnn(S(=O)(=O)C5CC5)c4)n3)cc2N[C@H]2CC[C@@](C)(O)CC2)n1 [Example 30]
Would you mind ranking these compounds by ascending IC50? Please list the labels in the order you were asked to rank them.
b, a, c
(b: 61.1 nM, a: 653 nM, c: 2910 nM)

###

# target: EGFR del19/T790M/C797S (Homo sapiens, UniProt P00533, C797S/DEL746-750/T790M)
# Sequence (P00533 with tags, fused parts or gaps DEL746-750/T790M/C797S): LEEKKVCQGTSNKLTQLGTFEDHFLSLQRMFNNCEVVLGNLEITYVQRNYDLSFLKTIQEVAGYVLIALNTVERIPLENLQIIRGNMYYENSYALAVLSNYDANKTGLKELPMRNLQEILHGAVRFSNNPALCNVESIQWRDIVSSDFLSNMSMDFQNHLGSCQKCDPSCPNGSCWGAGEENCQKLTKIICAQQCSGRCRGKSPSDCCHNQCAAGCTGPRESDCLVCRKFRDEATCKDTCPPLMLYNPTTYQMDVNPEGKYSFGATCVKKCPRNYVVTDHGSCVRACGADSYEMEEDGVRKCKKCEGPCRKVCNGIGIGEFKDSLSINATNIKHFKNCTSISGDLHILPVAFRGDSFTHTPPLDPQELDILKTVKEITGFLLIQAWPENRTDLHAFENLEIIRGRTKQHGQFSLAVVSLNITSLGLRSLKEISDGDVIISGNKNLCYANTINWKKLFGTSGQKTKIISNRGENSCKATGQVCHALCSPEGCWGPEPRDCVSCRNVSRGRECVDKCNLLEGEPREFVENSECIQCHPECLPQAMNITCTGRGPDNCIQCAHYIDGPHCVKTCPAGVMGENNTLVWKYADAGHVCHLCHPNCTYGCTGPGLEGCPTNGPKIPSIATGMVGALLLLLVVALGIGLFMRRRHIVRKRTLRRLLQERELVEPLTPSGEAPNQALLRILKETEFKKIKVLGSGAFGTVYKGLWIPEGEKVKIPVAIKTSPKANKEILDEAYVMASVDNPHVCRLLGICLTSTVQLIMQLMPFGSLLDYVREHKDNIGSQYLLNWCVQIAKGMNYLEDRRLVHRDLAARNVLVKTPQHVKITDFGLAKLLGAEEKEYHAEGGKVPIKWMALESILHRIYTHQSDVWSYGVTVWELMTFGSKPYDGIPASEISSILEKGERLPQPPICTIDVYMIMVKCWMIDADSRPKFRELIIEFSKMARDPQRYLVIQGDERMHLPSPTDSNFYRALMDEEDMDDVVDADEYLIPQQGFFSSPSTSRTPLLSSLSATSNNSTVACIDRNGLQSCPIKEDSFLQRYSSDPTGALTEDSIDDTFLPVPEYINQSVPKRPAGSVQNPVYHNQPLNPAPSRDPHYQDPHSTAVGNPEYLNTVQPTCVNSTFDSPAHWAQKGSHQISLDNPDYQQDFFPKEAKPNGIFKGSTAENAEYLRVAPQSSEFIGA
# assay-summary: Biochemical EGFR kinase assay (Lance Ultra TR-FRET), triple mutant del19/T790M/C797S
# condition-summary: IC50 del19/T790M/C797S (nM) 100 μM ATP, 100 μM ATP
property: IC50 (nM)

>  <chem-smiles>
CC(C)(O)c1cnc(-c2cnc(Nc3ccnc(-c4cnn(S(=O)(=O)C5CC5)c4)n3)cc2N[C@H]2CC[C@@H](CO)CC2)cn1

>  <IC50 [nM]>
0.1

$$$$
>  <chem-smiles>
Cc1cnc(-c2cnc(Nc3ccnc(-c4cnn(S(=O)(=O)C5CC5)c4)n3)cc2N[C@H]2CC[C@@](C)(O)CC2)cn1

>  <IC50 [nM]>
0.4

$$$$
>  <chem-smiles>
O=S(=O)(C1CC1)n1cc(-c2nccc(Nc3cc(N[C@H]4CC[C@@H](CO)CC4)c(-c4ccc(CN5CCC(O)CC5)cn4)cn3)n2)cn1

>  <IC50 [nM]>
0.1

$$$$
>  <chem-smiles>
CC(C)(O)[C@H]1CC[C@@H](Nc2cc(Nc3ccnc(-c4cnn(S(=O)(=O)C5CC5)c4)n3)ncc2-c2ccc(N3CCC(F)(F)CC3)nn2)CC1

>  <IC50 [nM]>
4.5

$$$$
>  <chem-smiles>
C[C@]1(O)CC[C@@H](Nc2cc(Nc3ccnc(-c4cnn(S(=O)(=O)C5CC5)c4)n3)ncc2-c2ccc(C(F)(F)F)nn2)CC1

>  <IC50 [nM]>
0.6

$$$$
>  <chem-smiles>
O=S(=O)(C1CC1)n1cc(-c2nccc(Nc3cc(N[C@H]4CC[C@@H](CO)CC4)c(-c4cnc(N5CCC(F)(F)CC5)cn4)cn3)n2)cn1

>  <IC50 [nM]>
3.9

$$$$
>  <chem-smiles>
CN(C)c1ccnc(-c2cnc(Nc3ccnc(-c4cnn(S(=O)(=O)C5CC5)c4)n3)cc2N[C@H]2CC[C@@](C)(O)CC2)n1

>  <IC50 [nM]>
0.8

$$$$
>  <chem-smiles>
CN(C)Cc1cnc(-c2cnc(Nc3ccnc(-c4cnn(S(=O)(=O)C5CC5)c4)n3)cc2N[C@H]2CC[C@@](C)(O)CC2)cn1

>  <IC50 [nM]>
0.1

$$$$

a = CN(C)C[C@H]1CC[C@@H](Nc2cc(Nc3ccnc(-c4cnn(S(=O)(=O)C5CC5)c4)n3)ncc2-c2cc(C(F)F)ccn2)CC1
b = CC(C)(O)c1ccc(-c2cnc(Nc3ccnc(-c4cnn(S(=O)(=O)C5CC5)c4)n3)cc2N[C@H]2CC[C@@](C)(O)CC2)nn1
Could you tell me which of these two has the smaller IC50 figure? First: a Second: b When you have decided, please share the label of that item.
a

1 = COc1ccc(-c2cnc(Nc3ccnc(-c4cnn(S(=O)(=O)C5CC5)c4)n3)cc2N[C@H]2CC[C@@](C)(O)CC2)nn1
2 = CC(C)(O)c1cnc(-c2cnc(Nc3ccnc(-c4cnn(S(=O)(=O)C5CC5)c4)n3)cc2N[C@H]2CC[C@@](C)(O)CC2)cn1
Could you tell me which of these two has the smaller IC50 figure? First: 1 Second: 2 When you have decided, please share the label of that item.
2
(2: 0.04 nM, 1: 0.4 nM)
